Attribution: patent US20250171495A1

Kindly state pIC50 for each of the entries shown.
- tested_on: matriptase (Homo sapiens)
- Construct: purchased R&D Systems 3946-SEB-010
- Sequence (Q9Y5Y6 615-855 limits assumed): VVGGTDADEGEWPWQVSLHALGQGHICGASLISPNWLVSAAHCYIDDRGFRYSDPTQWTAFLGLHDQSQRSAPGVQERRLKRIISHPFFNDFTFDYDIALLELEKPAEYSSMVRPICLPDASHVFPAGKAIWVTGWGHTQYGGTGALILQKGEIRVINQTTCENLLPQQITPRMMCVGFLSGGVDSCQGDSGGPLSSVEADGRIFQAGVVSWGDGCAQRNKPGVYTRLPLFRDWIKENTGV
- assay_method_text: Fluorogenic kinetic enzyme inhibitor assay, matriptase
- Assay type: biochemical
- measurement_setup: read-out: Matriptase IC50
pIC50: −log10 of the molar value.

Query the reported pIC50 for matriptase (Homo sapiens); item: `N=C(N)NCCC[C@H](NC(=O)[C@H](Cc1ccc2ccccc2c1)NC(=O)OCC1c2ccccc2-c2ccccc21)C(=O)c1nc2ccccc2s1`
< 4.70

Query the reported pIC50 for matriptase (Homo sapiens); item: `CC(C)(C)C[C@H](NC(=O)OCc1ccccc1)C(=O)N[C@@H](CCCNC(=N)N)C(=O)c1nc2ccccc2s1`
< 4.70

Query the reported pIC50 for matriptase (Homo sapiens); item: `N=C(N)NCCC[C@H](NC(=O)[C@H](Cc1csc2ccccc12)NC(=O)OCc1ccccc1)C(=O)c1nc2ccccc2s1`
< 4.70
